test system: IGROV-1; assay: NCI tumour cell line growth inhibition, 48 h
Calls of active or inactive are those of the source. No stated cut-off is given here; in the data, active = GI50 up to about 1.1 µM and inactive = higher. Square brackets hold non-standard residues; d marks the D form. Peptide text beside a SMILES is read from it. * marks the point of attachment. X26 = COC1=CC(=O)N(C(=O)[C@@H](O*)C(C)C)[C@H]1Cc1ccccc1; Bn2Val = CC(C)[C@@H](C(=O)*)N(Cc1ccccc1)Cc1ccccc1; NMeV = CN[C@H](C(=O)O)C(C)C; dNMeA = CN[C@H](C)C(=O)O
Outcomes: active, inactive

{"compound": "CCn1c(=O)c2nc(SC)sc2n(-c2ccc(C)cc2)c1=O", "class_assignment": "inactive"}
{"compound": "COc1cc2c(c(OC)c1OC)-c1ccc(=O)c(O)cc1[C@@H](NC(C)=O)CC2", "class_assignment": "inactive"}
{"compound": "C[C@]12CC(c3ccccc3O1)C(C#N)C(=O)N2 (stereo partly specified)", "class_assignment": "inactive"}
{"compound": "C/N=c1/ssc(=S)n1C(C)C", "class_assignment": "inactive"}
{"compound": "CC1(C)C(O)C[C@@H](O)[C@@]2(C)C1CC[C@]1(C)C2C[C@@H](O)[C@@H]2C([C@@]3(C)CC[C@@H](C(C)(C)O)O3)CCC21C (stereo partly specified)", "class_assignment": "inactive"}
{"compound": "CC1(C)OC(C[C@]2(C#N)C[C@H](CCl)OC(C)(C)O2)C[C@@H](C[C@]2(C#N)C[C@H](CCl)OC(C)(C)O2)O1 (stereo partly specified)", "class_assignment": "inactive"}
{"compound": "COCN1C(=O)C2CC(/C=C/C(N)=O)=CN2C(=O)c2ccccc21 (stereo unspecified)", "class_assignment": "inactive"}
{"compound": "COc1ccc2c(c1)CC[C@@H]1C2CC[C@]2(C)C(=O)N(CCN(C)C)C(=O)CC12 (stereo partly specified)", "class_assignment": "inactive"}
{"compound": "COC1=CC(=O)N(C(=O)[C@@H](OC(=O)[C@@H](C)N(C)C(=O)[C@@H]2CCCN2C(=O)[C@H](C(C)C)N(C)C(=O)[C@@H](NC(=O)[C@H](C(C)C)N(Cc2ccccc2)Cc2ccccc2)C(C)C)C(C)C)[C@H]1Cc1ccccc1 (Bn2Val-V[NMeV]P[dNMeA]-X26)", "class_assignment": "inactive"}
{"compound": "COc1ccc(/N=N/c2c(-c3ccccc3)nn(C(=O)CC(=O)Nc3cccc(Cl)c3)c2-c2ccccc2)cc1", "class_assignment": "inactive"}
{"compound": "CCOC(=O)Nc1[nH]cc(-c2ccccc2)c1C#N", "class_assignment": "inactive"}
{"compound": "Cc1c(-c2ccccc2)c(C#N)c2nnn(C3CCCCC3)c(=O)n12", "class_assignment": "inactive"}
{"compound": "Cc1ccc([N+](=O)[O-])cc1NC(=O)C(=O)C1CCC2=C(Sc3ccccc3N2)C1=O (stereo unspecified)", "class_assignment": "inactive"}
{"compound": "COc1ccc(/C=C2\\CCC(C)C3=C2N=c2s/c(=C/c4cccc(Br)c4)c(=O)n2C3c2ccc(OC)c(OC)c2)cc1OC (stereo unspecified)", "class_assignment": "inactive"}
{"compound": "COc1ccc(C2N(c3ccc(F)c([N+](=O)[O-])c3)C(=O)N3C(c4ccc(OC)cc4)N(c4ccc(F)c([N+](=O)[O-])c4)C(=O)N23)cc1 (stereo unspecified)", "class_assignment": "inactive"}
{"compound": "COc1ccc(S(=O)(=O)N/N=C(\\C)CN2C(=O)c3ccccc3C2=O)cc1OC", "class_assignment": "inactive"}
{"compound": "Nc1nc(Cl)cc(NCC2(O)CCC2)n1", "class_assignment": "inactive"}
{"compound": "Cc1ccc(S(=O)(=O)C(C#N)c2nc3ccccc3nc2N2CCOCC2)cc1 (stereo unspecified)", "class_assignment": "inactive"}
{"compound": "Cn1cc(NC(=O)c2cc(NC(=O)CCCCCCC(=O)Nc3cc(C(=O)Nc4cc(C(=O)NCCC(=N)N)n(C)c4)n(C)c3)cn2C)cc1C(=O)NCCC(=N)N", "class_assignment": "inactive"}
{"compound": "COc1ccc(OC)c(/C=C/c2cnnc3ccccc23)c1", "class_assignment": "inactive"}
{"compound": "CC(=O)O[C@H]1C(=O)[C@@]2(C)[C@H]([C@H](OC(=O)c3ccccc3)[C@]3(O)C[C@H](OC(=O)[C@H](O)[C@@H](NC(=O)c4ccccc4)C4CCCCC4)C(C)=C1C3(C)C)[C@]1(OC(C)=O)CO[C@@H]1C[C@@H]2O", "class_assignment": "active"}
{"compound": "COC(=O)CC[C@@H](NC(=O)C(C)NC(=O)COC1C(O)C(COC(=O)CCCCCCCCCCNC(=O)c2ccc([N+](=O)[O-])c3[nH]c4cc(Br)ccc4c(=O)c23)OC(OCc2ccccc2)C1NC(C)=O)C(N)=O (stereo partly specified)", "class_assignment": "inactive"}
{"compound": "COc1cccc(N2C(=O)CSC2c2cc(OC)c(OC)c(OC)c2)c1 (stereo unspecified)", "class_assignment": "inactive"}
{"compound": "Cc1ccc(C(=O)O)cc1NC(=O)c1cc(/C=C/c2ccccc2)[nH]c(=S)n1", "class_assignment": "inactive"}
{"compound": "O=C1C(Cl)=C(NCCF)C(=O)c2ncccc21", "class_assignment": "inactive"}
{"compound": "CO[C@@](c1ccccc1)(c1nc(C#N)c(N)o1)C(F)(F)F", "class_assignment": "inactive"}

* * *

Catalogue of GI50 readings, one per entry.
tested on: KM12; test: NCI tumour cell line growth inhibition, 48 h
Calls of active or inactive are those of the source. Cut-off read from the data, not from the text of the source: active = GI50 up to about 1.1 µM and inactive = higher.
reported_metric: GI50

{"molecule": "C[C@]12CC(c3ccccc3O1)C(C#N)C(=O)N2 (stereo partly specified)", "tested_on": "KM12", "reported_metric": "GI50", "result_value": "> 100 µM (inactive)"}
{"molecule": "CCCCCCCCCCCCCCCCCCNc1ccn(C2OC(COP(=O)(O)O)C(O)C2O)c(=O)n1 (stereo unspecified)", "tested_on": "KM12", "reported_metric": "GI50", "result_value": "> 100 µM (inactive)"}
{"molecule": "CCCCCCCCCCOC(=O)NCCC", "tested_on": "KM12", "reported_metric": "GI50", "result_value": "36.1 µM (inactive)"}
{"molecule": "CCOC(=O)/C(C(=O)c1ccc([N+](=O)[O-])cc1)=C(\\NS(=O)(=O)c1cc(C)c(Cl)cc1[S-])[n+]1ccc(N(C)C)cc1", "tested_on": "KM12", "reported_metric": "GI50", "result_value": "27.4 µM (inactive)"}
{"molecule": "COC[C@H](Cc1ccccc1)/N=C/c1ccccc1", "tested_on": "KM12", "reported_metric": "GI50", "result_value": "> 100 µM (inactive)"}
{"molecule": "C=C1CC2C(=O)N(c3ccccc3)C(=O)C2CC1n1[nH]c(=O)n(Cc2ccccc2)c1=O (stereo unspecified)", "tested_on": "KM12", "reported_metric": "GI50", "result_value": "> 100 µM (inactive)"}

* * *

Catalogue of GI50 readings, one per entry.
test system: NCI-H226; assay: NCI tumour cell line growth inhibition, 48 h
Activity calls are given as the source filed them. Cut-off read from the data, not from the text of the source: active = GI50 up to about 1.1 µM and inactive = higher.

{"compound": "CC1N[B@@-](C)(c2ccc(C(F)(F)F)cc2)OC1c1ccccc1 (some centres undefined)", "GI50": "> 100 µM (inactive)"}
{"compound": "Cc1ccc(S(=O)(=O)C(C#N)c2nc3ccccc3nc2-n2cccn2)cc1 (centres undefined)", "GI50": "> 100 µM (inactive)"}
{"compound": "CCNC(=S)NNC(=O)C12CC3CC(CC(C3)C1)C2", "GI50": "> 100 µM (inactive)"}
{"compound": "CCOc1ccc(/C=C2/C(=O)N/C(=N\\C(C)=O)N2C)cc1", "GI50": "> 100 µM (inactive)"}
{"compound": "Cc1ccc2nc(-c3ccc(-n4c(C)nc(=O)c(-c5ccc(F)cc5)c4C)cc3)sc2c1", "GI50": "17.5 µM (inactive)"}
{"compound": "O=C(O)C1CCCN1Cc1c[nH]c2ccccc12 (centres undefined)", "GI50": "> 100 µM (inactive)"}
{"compound": "CN1C(=O)[C@@]2(C=CC3(CC2)OCCO3)c2ccccc21", "GI50": "> 50 µM (inactive)"}
{"compound": "COc1ccccc1NC(=O)C(=O)C1C(=O)Nc2ccccc2[S+]1[O-] (centres undefined)", "GI50": "> 100 µM (inactive)"}
{"compound": "CNC(=O)N(CCCC(NC(C)=O)C(=O)NCc1ccccc1)Cc1ccccc1 (centres undefined)", "GI50": "> 100 µM (inactive)"}

* * *

test system: K562; assay: NCI tumour cell line growth inhibition, 48 h
Active and inactive are the calls of the source. Cut-off read from the data, not from the text of the source: active = GI50 up to about 1.1 µM and inactive = higher.
Outcomes: true (1) for active, false (0) for inactive

{"compound": "C=C(OC1C(C)=C2C(C1OC(=O)CCCCCCC)C(C)(OC(C)=O)CC(OC(=O)CCC)C1(O)C2OC(=O)C1(C)O)/C(C)=C/C (configuration not stated)", "class_assignment": "true (1)"}
{"compound": "CCN1CCN=C2c3cc(OC)ccc3Nc3c([N+](=O)[O-])ccc1c32", "class_assignment": "true (1)"}
{"compound": "N=C(N)Nc1ncccc1[N+](=O)[O-]", "class_assignment": "false (0)"}
{"compound": "Cc1ccc2nc(-c3ccc(-n4c(C)nc(=O)c(-c5ccc(F)cc5)c4C)cc3)sc2c1", "class_assignment": "false (0)"}
{"compound": "COc1ccc(/C=C2\\CCC(C)C3=C2N=c2s/c(=C/c4cccc(Br)c4)c(=O)n2C3c2ccc(OC)c(OC)c2)cc1OC (configuration not stated)", "class_assignment": "false (0)"}
{"compound": "COc1cc(/C=N/c2ccccn2)cc(OC)c1OC", "class_assignment": "false (0)"}
{"compound": "CCCCCCCCCCOC(=O)NCCC", "class_assignment": "false (0)"}
